Biological target: Muscarinic acetylcholine receptor M2 (Homo sapiens, UniProt P08172); also: assay procedure not described here
Sequence (P08172 whole entry): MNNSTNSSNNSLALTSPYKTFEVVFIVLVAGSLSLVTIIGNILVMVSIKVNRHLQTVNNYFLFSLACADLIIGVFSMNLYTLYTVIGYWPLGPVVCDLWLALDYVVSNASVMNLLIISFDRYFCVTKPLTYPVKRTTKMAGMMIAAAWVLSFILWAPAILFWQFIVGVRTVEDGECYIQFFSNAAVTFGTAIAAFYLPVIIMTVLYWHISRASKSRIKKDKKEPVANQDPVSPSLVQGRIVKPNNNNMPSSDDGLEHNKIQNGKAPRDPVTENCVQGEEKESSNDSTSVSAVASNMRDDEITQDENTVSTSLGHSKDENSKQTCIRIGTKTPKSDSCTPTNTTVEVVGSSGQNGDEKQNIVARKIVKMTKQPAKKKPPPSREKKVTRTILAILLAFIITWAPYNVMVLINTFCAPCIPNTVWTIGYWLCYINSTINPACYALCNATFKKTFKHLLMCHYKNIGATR
Format: functional, cell-based
Here the recorded AC50 is given for each entry.

Consider the worked cases shown below.
{"columns": ["compound", "result"],
 "data": [
  ["NS(=O)(=O)c1cc(-c2nnn[nH]2)c(NCc2cccs2)cc1Cl [AZOSEMIDE]", "> 30 µM"],
  ["C[C@@H]1O[C@@H]1P(=O)(O)O [FOSFOMYCIN]", "> 10 µM"],
  ["CN1C(=O)CC(=O)N(c2ccccc2)c2cc(Cl)ccc21 [CLOBAZAM]", "> 10 µM"],
  ["COc1ccccc1OCC(O)COC(N)=O (configuration not stated) [METHOCARBAMOL]", "> 10 µM"],
  ["CCCCCOC(=O)Nc1nc(=O)n([C@@H]2O[C@H](C)[C@@H](O)[C@H]2O)cc1F [CAPECITABINE]", "> 30 µM"]
]}

Report AC50, nothing else, for this compound: O=C(NC[C@H]1CN(c2ccc(N3CCOCC3=O)cc2)C(=O)O1)c1ccc(Cl)s1 [RIVAROXABAN]
> 30 µM

Report AC50, nothing else, for this compound: CCC1(C2=CCCCCC2)C(=O)NC(=O)NC1=O [HEPTABARBITAL]
> 10 µM

* * *

Here the recorded AC50 is given for each entry.
Target: Voltage-gated inwardly rectifying potassium channel KCNH2 (Homo sapiens, UniProt Q12809); also: assay procedure not described here
Sequence (Q12809 whole entry): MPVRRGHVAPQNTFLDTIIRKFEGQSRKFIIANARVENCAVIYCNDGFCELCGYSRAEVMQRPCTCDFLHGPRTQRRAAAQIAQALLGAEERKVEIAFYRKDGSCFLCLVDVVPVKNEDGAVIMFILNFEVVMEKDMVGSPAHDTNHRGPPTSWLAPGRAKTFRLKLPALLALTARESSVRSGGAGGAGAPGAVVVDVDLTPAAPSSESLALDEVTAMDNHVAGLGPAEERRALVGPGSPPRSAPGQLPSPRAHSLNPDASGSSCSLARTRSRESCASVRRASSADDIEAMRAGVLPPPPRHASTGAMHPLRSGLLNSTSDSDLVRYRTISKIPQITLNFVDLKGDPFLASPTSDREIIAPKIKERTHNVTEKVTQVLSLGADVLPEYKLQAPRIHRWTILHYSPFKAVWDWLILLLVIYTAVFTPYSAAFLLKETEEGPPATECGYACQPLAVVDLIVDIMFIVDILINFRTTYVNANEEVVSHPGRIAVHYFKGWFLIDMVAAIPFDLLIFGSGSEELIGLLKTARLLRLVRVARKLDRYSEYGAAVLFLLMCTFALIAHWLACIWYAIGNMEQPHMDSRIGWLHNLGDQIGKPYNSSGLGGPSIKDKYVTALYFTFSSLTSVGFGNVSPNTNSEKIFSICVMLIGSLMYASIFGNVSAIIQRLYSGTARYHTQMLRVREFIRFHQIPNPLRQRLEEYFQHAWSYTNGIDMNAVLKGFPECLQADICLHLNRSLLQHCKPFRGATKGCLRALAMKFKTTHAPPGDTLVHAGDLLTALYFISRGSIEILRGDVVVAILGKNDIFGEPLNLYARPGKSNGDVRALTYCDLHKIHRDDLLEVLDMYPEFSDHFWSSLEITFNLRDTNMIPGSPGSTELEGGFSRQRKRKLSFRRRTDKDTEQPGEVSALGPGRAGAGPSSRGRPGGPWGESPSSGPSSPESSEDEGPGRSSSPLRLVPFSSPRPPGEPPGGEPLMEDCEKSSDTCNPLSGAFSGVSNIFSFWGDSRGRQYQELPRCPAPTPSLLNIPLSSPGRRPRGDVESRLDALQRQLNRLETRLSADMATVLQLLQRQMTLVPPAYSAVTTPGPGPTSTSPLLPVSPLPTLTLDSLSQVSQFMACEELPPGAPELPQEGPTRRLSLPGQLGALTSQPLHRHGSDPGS
Assay type: functional
Conditions: read-out: AC50; also: assay procedure not described here

{"columns": ["compound", "AC50"],
 "data": [
  ["NS(=O)(=O)c1cc2c(cc1Cl)NCNS2(=O)=O [HYDROCHLOROTHIAZIDE]", "> 30 µM"]
]}

Report AC50, nothing else, for this compound: CN1CCCC(CN2c3ccccc3Sc3ccccc32)C1 (configuration not stated)
3.77 µM

Report AC50, nothing else, for this compound: O=C(O)CCn1c2c(c3ccccc31)C[C@H](NS(=O)(=O)c1ccc(F)cc1)CC2
> 30 µM

Report AC50, nothing else, for this compound: Cc1c(Cl)cccc1Nc1ccccc1C(=O)O
> 30 µM

Report AC50, nothing else, for this compound: CC(C)NCC(O)COc1ccc(COCCOC(C)C)cc1 (configuration not stated)
> 30 µM

Report AC50, nothing else, for this compound: CC(C(O)c1ccc(O)cc1)N1CCC(Cc2ccccc2)CC1 (configuration not stated)
0.67 µM

Report AC50, nothing else, for this compound: C[N+](C)(C)CCCCCCCCCC[N+](C)(C)C
> 30 µM

* * *

Molecular target: Adenosine receptor A3 (Homo sapiens, UniProt P0DMS8); also: assay procedure not described here
Sequence (P0DMS8 whole entry): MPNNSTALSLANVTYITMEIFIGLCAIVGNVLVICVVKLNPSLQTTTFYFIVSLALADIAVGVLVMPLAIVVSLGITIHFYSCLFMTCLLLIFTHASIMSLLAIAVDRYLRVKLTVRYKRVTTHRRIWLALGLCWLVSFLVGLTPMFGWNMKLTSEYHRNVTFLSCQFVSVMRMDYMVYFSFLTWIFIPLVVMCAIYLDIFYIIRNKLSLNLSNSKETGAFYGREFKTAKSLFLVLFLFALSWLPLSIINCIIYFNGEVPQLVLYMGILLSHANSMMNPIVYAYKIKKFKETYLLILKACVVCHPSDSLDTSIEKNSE
readout: AC50

Consider the worked cases shown below.
{"columns": ["compound", "AC50"],
 "data": [
  ["COc1cc2c(cc1OC)C(=O)C(CC1CCN(Cc3ccccc3)CC1)C2 (stereo not drawn)", "> 30 µM"],
  ["Sc1ncnc2nc[nH]c12 [MERCAPTOPURINE ANHYDROUS]", "> 30 µM"],
  ["O=C(O)c1cccc(-c2noc(-c3ccccc3F)n2)c1", "> 30 µM"]
]}

Name the recorded AC50 of OC[C@@H](O)[C@@H](O)[C@H](O)[C@H](O)CO , assay system Adenosine receptor A3 (Homo sapiens, UniProt P0DMS8). Also: assay procedure not described here.
> 30 µM

Name the recorded AC50 of Cc1nc(-c2ccc(OCC(C)C)c(C#N)c2)sc1C(=O)O , assay system Adenosine receptor A3 (Homo sapiens, UniProt P0DMS8). Also: assay procedure not described here.
> 30 µM

* * *

For Sodium-dependent dopamine transporter (Homo sapiens), measured AC50 is reported for the entries below.

Consider the worked cases shown below.
{"columns": ["smiles_repr", "AC50"],
 "data": [
  ["O=C(NC[C@H]1CN(c2ccc(N3CCOCC3=O)cc2)C(=O)O1)c1ccc(Cl)s1", "> 30 µM"],
  ["CC[C@@]1(O)C[C@H](O[C@H]2C[C@H](N(C)C)[C@H](O[C@H]3C[C@H](O)[C@H](O[C@H]4CCC(=O)[C@H](C)O4)[C@H](C)O3)[C@H](C)O2)c2c(cc3c(c2O)C(=O)c2c(O)cccc2C3=O)[C@H]1C(=O)OC", "> 30 µM"]
]}

Name the recorded AC50 of C[C@@H]1O[C@@H](OC[C@H]2O[C@@H](Oc3c(-c4ccc(OCCO)c(OCCO)c4)oc4cc(OCCO)cc(O)c4c3=O)[C@H](O)[C@@H](O)[C@@H]2O)[C@H](O)[C@H](O)[C@H]1O , assay system Sodium-dependent dopamine transporter (Homo sapiens). Also: assay procedure not described here.
> 30 µM

* * *

For Neuronal acetylcholine receptor subunit alpha-4 (Homo sapiens), measured AC50 is reported for the entries below.

Consider the worked cases shown below.
{"columns": ["molecule", "AC50"],
 "data": [
  ["CC(C)C(=O)Nc1ccc([N+](=O)[O-])c(C(F)(F)F)c1 [FLUTAMIDE]", "> 30 µM"],
  ["C[N+](C)(C)CC(=O)O", "> 30 µM"],
  ["CN(CCOc1ccc(NS(C)(=O)=O)cc1)CCc1ccc(NS(C)(=O)=O)cc1 [DOFETILIDE]", "> 10 µM"]
]}

Report AC50, nothing else, for this molecule: O=C1CN=C(c2ccccc2)c2cc(Cl)ccc2N1CC(F)(F)F
> 30 µM

* * *

For Kappa-type opioid receptor (Homo sapiens, UniProt P41145), measured AC50 is reported for the entries below.

Consider the worked cases shown below.
{"columns": ["molecule", "result"],
 "data": [
  ["CCCCN1CCCCC1C(=O)Nc1c(C)cccc1C (configuration not stated)", "> 30 µM"],
  ["CO/N=C(\\C(=O)N[C@@H]1C(=O)N2C(C(=O)[O-])=C(C[N+]3(C)CCCC3)CS[C@H]12)c1csc(N)n1", "> 30 µM"],
  ["CC(C(O)c1ccc(O)cc1)N1CCC(Cc2ccccc2)CC1 (configuration not stated)", "1 µM"]
]}

Name the recorded AC50 of CCOC(=O)[C@H](CCc1ccccc1)N[C@@H](C)C(=O)N1CCC[C@H]1C(=O)O , assay system Kappa-type opioid receptor (Homo sapiens, UniProt P41145). Also: assay procedure not described here.
> 10 µM

Name the recorded AC50 of COCC1=C(C(=O)OC(C)OC(=O)OC(C)C)N2C(=O)[C@@H](NC(=O)/C(=N\OC)c3csc(N)n3)[C@H]2SC1 (some centres not stated) , assay system Kappa-type opioid receptor (Homo sapiens, UniProt P41145). Also: assay procedure not described here.
> 30 µM

Name the recorded AC50 of C#CC1(OC(N)=O)CCCCC1 [ETHINAMATE] , assay system Kappa-type opioid receptor (Homo sapiens, UniProt P41145). Also: assay procedure not described here.
> 10 µM

Name the recorded AC50 of CC(=O)N[C@H]1[C@H]([C@H](O)[C@H](O)CO)OC(C(=O)O)=C[C@@H]1N=C(N)N , assay system Kappa-type opioid receptor (Homo sapiens, UniProt P41145). Also: assay procedure not described here.
> 10 µM

Name the recorded AC50 of O=C(Cn1ccnc1[N+](=O)[O-])NCc1ccccc1 , assay system Kappa-type opioid receptor (Homo sapiens, UniProt P41145). Also: assay procedure not described here.
21 µM

Name the recorded AC50 of CC(C)C(=O)OCC(=O)[C@@]12O[C@H](C3CCCCC3)O[C@@H]1C[C@H]1[C@@H]3CCC4=CC(=O)C=C[C@]4(C)[C@H]3[C@@H](O)C[C@@]12C [CICLESONIDE] , assay system Kappa-type opioid receptor (Homo sapiens, UniProt P41145). Also: assay procedure not described here.
9.72 µM

Name the recorded AC50 of CN1CCC2=C(C1)C(c1ccccc1)c1ccccc12 (configuration not stated) , assay system Kappa-type opioid receptor (Homo sapiens, UniProt P41145). Also: assay procedure not described here.
> 10 µM

Name the recorded AC50 of O=C(O)c1cc(-c2ccc(F)cc2F)ccc1O , assay system Kappa-type opioid receptor (Homo sapiens, UniProt P41145). Also: assay procedure not described here.
> 10 µM

Name the recorded AC50 of CCCCCN(C)CCC(O)(P(=O)(O)O)P(=O)(O)O , assay system Kappa-type opioid receptor (Homo sapiens, UniProt P41145). Also: assay procedure not described here.
> 30 µM

* * *

For Beta-2 adrenergic receptor (Homo sapiens, UniProt P07550), measured AC50 is reported for the entries below.

{"columns": ["compound", "result"],
 "data": [
  ["NS(=O)(=O)c1cc2c(cc1Cl)NCNS2(=O)=O [HYDROCHLOROTHIAZIDE]", "> 10 µM"],
  ["COC(=O)N[C@H](C(=O)N1CCC[C@H]1c1nc(-c2ccc(-c3ccc(-c4c[nH]c([C@@H]5CCCN5C(=O)[C@@H](NC(=O)OC)C(C)C)n4)cc3)cc2)c[nH]1)C(C)C", "> 30 µM"]
]}

Could you now consider this next compound?
Name the recorded AC50 of CN1CC[C@]23CCCC[C@H]2[C@H]1Cc1ccc(O)cc13 [LEVORPHANOL] , assay system Beta-2 adrenergic receptor (Homo sapiens, UniProt P07550). Also: assay procedure not described here.
> 10 µM

* * *

For Alpha-1A adrenergic receptor (Homo sapiens), measured AC50 is reported for the entries below.

Consider the worked cases shown below.
{"columns": ["molecule", "tgt", "result"],
 "data": [
  ["CN1CCC2=C(C1)C(c1ccccc1)c1ccccc12 (configuration not stated)", "Alpha-1A adrenergic receptor (Homo sapiens)", "> 10 µM"],
  ["CN[C@@H](C)[C@H](O)c1ccccc1", "Alpha-1A adrenergic receptor (Homo sapiens)", "> 10 µM"],
  ["O=C(CCCCC(=O)Nc1c(I)cc(I)c(C(=O)O)c1I)Nc1c(I)cc(I)c(C(=O)O)c1I [IODIPAMIDE]", "Alpha-1A adrenergic receptor (Homo sapiens)", "> 30 µM"],
  ["CCN(CC)CCOC(=O)c1ccc(N)cc1", "Alpha-1A adrenergic receptor (Homo sapiens)", "> 10 µM"],
  ["CO/N=C(\\C(=O)N[C@@H]1C(=O)N2C(C(=O)[O-])=C(C[N+]3(C)CCCC3)CS[C@H]12)c1csc(N)n1", "Alpha-1A adrenergic receptor (Homo sapiens)", "> 30 µM"]
]}

Name the recorded AC50 of C#CCN[C@@H]1CCc2ccccc21 , assay system Alpha-1A adrenergic receptor (Homo sapiens). Also: assay procedure not described here.
20 µM

Name the recorded AC50 of CC(N)Cc1ccccc1 (configuration not stated) , assay system Alpha-1A adrenergic receptor (Homo sapiens). Also: assay procedure not described here.
> 10 µM

Name the recorded AC50 of C[N+](C)(C)CCOC(N)=O , assay system Alpha-1A adrenergic receptor (Homo sapiens). Also: assay procedure not described here.
> 10 µM

Name the recorded AC50 of CC1=CC(=O)c2ccccc2C1=O , assay system Alpha-1A adrenergic receptor (Homo sapiens). Also: assay procedure not described here.
> 30 µM

Name the recorded AC50 of Oc1ncnc2[nH]ncc12 , assay system Alpha-1A adrenergic receptor (Homo sapiens). Also: assay procedure not described here.
2.88 µM

Name the recorded AC50 of CNC(=O)c1cc(Oc2ccc(NC(=O)Nc3ccc(Cl)c(C(F)(F)F)c3)cc2)ccn1 , assay system Alpha-1A adrenergic receptor (Homo sapiens). Also: assay procedure not described here.
> 10 µM

Name the recorded AC50 of CN1C(=O)CC(=O)N(c2ccccc2)c2cc(Cl)ccc21 , assay system Alpha-1A adrenergic receptor (Homo sapiens). Also: assay procedure not described here.
> 10 µM
